# key: entry, value: melting point

Below are worked cases with known answers.
Query: Read off the recorded melting point for Cc1nc2cc(Cl)ccc2c2ccn(S(=O)(=O)c3ccccc3)c12 [Table 2, entry 2]
Reply: 178 to 180 °C

Query: Read off the recorded melting point for N#Cc1ccc2[nH]c(-c3ccccc3)cc2c1 [Table 2, entry 6, 2-phenyl-1H-indole-5-carbonitrile]
Reply: 194 to 196 °C

Query: Read off the recorded melting point for Cc1nc2ccccc2c2ccn(S(=O)(=O)c3ccccc3)c12 [compound 3]
Reply: 143 to 145 °C

Query: Read off the recorded melting point for N#Cc1ccc2nc(-c3ccccc3)c3ccccc3c2c1 [Table 2, entry 5, 6-phenylphenanthridine-2-carbonitrile]
Reply: 233 to 235 °C

Lab note: next compound to report on.
Query: Read off the recorded melting point for Nc1ncnc2c1ncn2Cc1nc2ccccc2c2cc[nH]c12 [Aplidiopsamine A]
Reply: 229 to 231 °C
